The origin of these recorded values is ChEMBL document CHEMBL5625263.

assay: Solubility of the compound; assay type: physicochemical
parameter: solubility (µM)

Record excerpt, results attached:
- compound: "CC1CCCOc2cccc(n2)-n2c(=O)[nH]c3nccc(c32)O1 (stereo unspecified)"
  parameter: "solubility"
  unit: "µM"
  observed_value: 32
- compound: "CC1CCC(C)n2ccc(=O)c3cc(F)c(nc32)-n2c(=O)[nH]c3nccc(c32)O1 (stereo unspecified)"
  parameter: "solubility"
  unit: "µM"
  observed_value: 271
- compound: "CC1(C)NC(=O)c2ccc3cc2N1CCCOc1ccnc2[nH]c(=O)n-3c12"
  parameter: "solubility"
  unit: "µM"
  observed_value: 9

A: CC1(C)NC(=O)c2ccc3cc2N1CCCCOc1ccnc2[nH]c(=O)n-3c12
B: CN1CCCCOc2ccnc3[nH]c(=O)n(c23)-c2cc1ccc2Cl
C: CC1(C)NC(=O)c2ccc3nc2N1CCCCOc1ccnc2[nH]c(=O)n-3c12
D: O=c1ccn2c3nc(ccc13)-n1c(=O)[nH]c3nccc(c31)OCCCC2
E: CC1CCN2c3nc(ccc3C(=O)NC2(C)C)-n2c(=O)[nH]c3nccc(c32)O1 (stereo unspecified)
INPUT: Rank order required: solubility, descending. Write out the labels following the order that was asked for.
OUTPUT: E, A, B, C, D
(E: 25 µM, A: 12 µM, B: 4 µM, C: 1.5 µM, D: 0.9 µM)

1: O=c1[nH]c2nccc3c2n1-c1cccc(n1)OCCCCO3
2: CC1CCC(C)Oc2ccnc3[nH]c(=O)n(c23)-c2nc(c(C(N)=O)cc2F)O1 (stereo unspecified)
INPUT: Identify the entry with the larger solubility. Options: 1 and 2 // return label of chosen record
OUTPUT: 2

1: CC1CCCn2ccc(=O)c3ccc(nc32)-n2c(=O)[nH]c3nccc(c32)O1 (stereo unspecified)
2: CN1CCCCOc2ccnc3[nH]c(=O)n(c23)-c2ccc(C(N)=O)c1n2
3: CC1CC(C)Oc2ccnc3[nH]c(=O)n(c23)-c2cccc(n2)O1 (stereo unspecified)
4: NC(=O)c1ccc2nc1OCCCCOc1ccnc3[nH]c(=O)n-2c13
INPUT: With regard to solubility, arrange the entries in ascending order, please. Write out the labels following the order that was asked for.
OUTPUT: 4, 2, 3, 1
(4: 5.5 µM, 2: 16 µM, 3: 95 µM, 1: 275 µM)
